Catalogue of IC50 readings, one per entry.
experimental_system: human EGFR L858R/T790M (NIH/3T3 cells) (Homo sapiens, UniProt P00533, L858R/T790M)
Sequence (P00533 25-1210 T790M/L858R): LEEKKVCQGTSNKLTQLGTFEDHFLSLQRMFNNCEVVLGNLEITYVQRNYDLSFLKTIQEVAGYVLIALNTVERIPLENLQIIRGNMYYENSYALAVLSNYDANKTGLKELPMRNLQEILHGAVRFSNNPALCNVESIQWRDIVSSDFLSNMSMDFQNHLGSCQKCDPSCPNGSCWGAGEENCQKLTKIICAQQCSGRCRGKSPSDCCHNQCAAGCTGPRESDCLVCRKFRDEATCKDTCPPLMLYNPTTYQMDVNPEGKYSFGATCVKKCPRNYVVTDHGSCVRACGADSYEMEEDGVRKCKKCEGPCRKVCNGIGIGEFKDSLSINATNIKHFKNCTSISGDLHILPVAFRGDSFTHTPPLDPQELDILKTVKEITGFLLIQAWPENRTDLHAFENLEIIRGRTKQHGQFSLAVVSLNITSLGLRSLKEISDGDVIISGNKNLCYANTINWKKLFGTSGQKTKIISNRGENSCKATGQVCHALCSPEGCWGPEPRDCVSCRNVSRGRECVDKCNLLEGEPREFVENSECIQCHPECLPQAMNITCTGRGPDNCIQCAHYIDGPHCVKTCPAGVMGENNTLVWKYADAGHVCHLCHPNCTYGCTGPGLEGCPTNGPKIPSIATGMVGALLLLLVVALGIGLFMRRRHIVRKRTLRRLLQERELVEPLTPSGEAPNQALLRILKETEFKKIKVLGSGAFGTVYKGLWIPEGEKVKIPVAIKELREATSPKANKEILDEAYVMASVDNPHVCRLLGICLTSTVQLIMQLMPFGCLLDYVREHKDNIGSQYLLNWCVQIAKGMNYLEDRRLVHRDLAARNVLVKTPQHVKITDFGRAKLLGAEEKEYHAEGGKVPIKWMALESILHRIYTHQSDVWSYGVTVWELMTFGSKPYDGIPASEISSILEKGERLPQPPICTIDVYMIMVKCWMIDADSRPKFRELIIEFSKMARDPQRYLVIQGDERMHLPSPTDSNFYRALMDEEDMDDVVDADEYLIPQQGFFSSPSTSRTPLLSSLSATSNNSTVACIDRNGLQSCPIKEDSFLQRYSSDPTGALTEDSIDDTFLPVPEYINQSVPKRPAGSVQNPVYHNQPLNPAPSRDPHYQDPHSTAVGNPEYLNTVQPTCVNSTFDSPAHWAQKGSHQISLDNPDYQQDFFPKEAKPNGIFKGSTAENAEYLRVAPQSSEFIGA
assay_summary: EGFR target modulation in engineered NIH/3T3 cell lines (phospho-EGFR Y1068 AlphaLISA), EGFR L858R/T790M
Format: cell-based
particulars: engineered NIH/3T3 cells, read-out: NIH3T3 IC50 (μM) EGFR (L858R/T790M)

# compound, readout_unit, value_qualifier, IC50
measured = [
    ("C=CC(=O)N1CCCC[C@@H](n2c(NC(=O)c3cccc(C(F)(F)F)c3)nc3ccccc32)C1", "µM", "=", 0.001),
    ("CC1=C(C(=O)N2CCCC[C@@H](n3c(NC(=O)c4ccnnc4)nc4cccc(C)c43)C2)S(=O)(=O)CCO1", "µM", "=", 0.209),
    ("Cc1cccc2nc(NC(=O)c3ccnnc3)n([C@@H]3CCCCN(C(=O)C#CCN(C)C)C3)c12", "µM", "<", 0.001),
    ("C=CC(=O)N1CCC[C@@H](n2c(NC(=O)c3cccc(C(F)(F)F)c3)nc3cccc(C)c32)C1", "µM", "=", 0.007),
    ("Cc1cccc2nc(NC(=O)c3cccc(C#N)c3)n(C3CCCCN(C(=O)/C=C/CN(C)C)C3)c12 (stereo not shown)", "µM", "=", 0.002),
    ("CO[C@H]1CCN(C/C=C/C(=O)N2CCCC[C@@H](n3c(NC(=O)c4ccnc(C)c4)nc4cccc(Cl)c43)C2)C1", "µM", "=", 0.006),
    ("Cc1cccc2nc(NC(=O)c3ccncn3)n(C3CCCCN(C(=O)/C=C/CN(C)C)C3)c12 (stereo not shown)", "µM", "=", 0.042),
]
